Field: Ki. Provide a value for each of the molecules that follow.
- TARGET_ENTITY: human CB1 receptor (Homo sapiens, UniProt P21554)
- Construct: expressed in transfected cells; host or cells: HEK-293
- Sequence (P21554 whole entry): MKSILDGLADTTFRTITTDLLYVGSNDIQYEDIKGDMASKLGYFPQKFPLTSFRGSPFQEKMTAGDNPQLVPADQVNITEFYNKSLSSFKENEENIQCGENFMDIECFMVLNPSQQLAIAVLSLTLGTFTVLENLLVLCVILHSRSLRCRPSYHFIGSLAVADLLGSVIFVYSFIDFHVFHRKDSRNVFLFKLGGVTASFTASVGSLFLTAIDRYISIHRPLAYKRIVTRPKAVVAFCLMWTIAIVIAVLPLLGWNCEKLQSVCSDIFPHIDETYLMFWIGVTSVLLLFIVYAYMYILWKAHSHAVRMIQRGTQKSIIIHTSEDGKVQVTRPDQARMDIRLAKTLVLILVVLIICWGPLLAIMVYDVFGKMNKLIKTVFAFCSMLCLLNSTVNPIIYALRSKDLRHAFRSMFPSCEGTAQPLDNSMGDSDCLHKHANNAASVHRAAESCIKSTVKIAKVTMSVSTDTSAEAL
- TEST_DETAILS: Radioligand displacement in human CB1 receptor-transfected cells (HEK-293)
- Type: binding
- CONDITION_DETAILS: Ki, displacement of 3H-CP55940, human CB1 transfected cells; 3H-CP55940; Table 5, parallel synthesis analogs, concentration assumes 100% yield
Numbers only, in nM.

CCC(C)CC(C)NC(=O)c1nn(-c2ccc(Cl)cc2Cl)c(-c2ccc(Cl)cc2)c1C (stereo not shown) ... 9.4
CCCCCCCCCC(C)NC(=O)c1nn(-c2ccc(Cl)cc2Cl)c(-c2ccc(Cl)cc2)c1C (stereo not shown) ... 41.1
COc1ccc(NC(=O)c2nn(-c3ccc(Cl)cc3Cl)c(-c3ccc(Cl)cc3)c2C)cc1 ... 220
CC(C)=CCC/C(C)=C/CNC(=O)c1nn(-c2ccc(Cl)cc2Cl)c(-c2ccc(Cl)cc2)c1C ... 26.8
COc1ccc(CCNC(=O)c2nn(-c3ccc(Cl)cc3Cl)c(-c3ccc(Cl)cc3)c2C)cc1 ... 56.9

Give Ki for each listed item.
1. COCC(C)NC(=O)c1nn(-c2ccc(Cl)cc2Cl)c(-c2ccc(Cl)cc2)c1C (stereo not shown)
2. Cc1c(C(=O)N2CCC(O)(c3ccccc3)CC2)nn(-c2ccc(Cl)cc2Cl)c1-c1ccc(Cl)cc1

[39.8, 52.1]

Give Ki for each listed item.
1. Cc1c(C(=O)NCCC(c2ccccc2)c2ccccc2)nn(-c2ccc(Cl)cc2Cl)c1-c1ccc(Cl)cc1
2. Cc1c(C(=O)NC(C)Cc2ccc(Cl)cc2)nn(-c2ccc(Cl)cc2Cl)c1-c1ccc(Cl)cc1 (stereo not shown)
3. CCCCCC(CC)NC(=O)c1nn(-c2ccc(Cl)cc2Cl)c(-c2ccc(Cl)cc2)c1C (stereo not shown)
4. CCCCCCCCCCCCNC(=O)c1nn(-c2ccc(Cl)cc2Cl)c(-c2ccc(Cl)cc2)c1C
5. CCCCCCCCCCCNC(=O)c1nn(-c2ccc(Cl)cc2Cl)c(-c2ccc(Cl)cc2)c1C
6. Cc1c(C(=O)N2CCc3ccccc3C2)nn(-c2ccc(Cl)cc2Cl)c1-c1ccc(Cl)cc1

25.2
22.9
9.6
176
45.6
57.7

Give Ki for each listed item.
1. Cc1c(C(=O)NC(C)CCC(C)C)nn(-c2ccc(Cl)cc2Cl)c1-c1ccc(Cl)cc1 (stereo not shown)
2. Cc1c(C(=O)NCCc2ccc(O)cc2)nn(-c2ccc(Cl)cc2Cl)c1-c1ccc(Cl)cc1
3. CCCCCCCCCCCCCNC(=O)c1nn(-c2ccc(Cl)cc2Cl)c(-c2ccc(Cl)cc2)c1C

13.2
106
201

====

- TARGET_ENTITY: G-protein-linked cannabinoid receptors (Rattus norvegicus, UniProt P20272)
- Construct: tissue Charles River or Pel-Freez Biologicals; host or cells: whole rat brain crude membrane homogenate
- Sequence (P20272 whole entry): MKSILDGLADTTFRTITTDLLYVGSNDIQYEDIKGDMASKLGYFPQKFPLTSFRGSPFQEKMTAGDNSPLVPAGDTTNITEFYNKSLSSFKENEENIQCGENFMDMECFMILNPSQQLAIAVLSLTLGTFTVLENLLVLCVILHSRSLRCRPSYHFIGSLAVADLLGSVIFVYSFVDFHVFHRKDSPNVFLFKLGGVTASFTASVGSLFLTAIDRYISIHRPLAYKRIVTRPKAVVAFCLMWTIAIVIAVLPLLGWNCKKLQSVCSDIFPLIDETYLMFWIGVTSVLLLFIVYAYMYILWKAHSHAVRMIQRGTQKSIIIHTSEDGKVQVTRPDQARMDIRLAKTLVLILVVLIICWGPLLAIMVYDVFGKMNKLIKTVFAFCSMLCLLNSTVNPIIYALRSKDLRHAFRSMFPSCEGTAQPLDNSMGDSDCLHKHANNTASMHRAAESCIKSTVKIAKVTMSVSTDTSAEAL
- TEST_DETAILS: GTP-γ-[35S] binding in whole rat brain
- Format: biochemical
- CONDITION_DETAILS: EC50, GTP-γ-[35S] in Whole Rat Brain, whole rat brain membranes; inverse agonist/antagonist activity
- From the text: Cannabinoid receptor-mediated alteration in GTP-γ-[^35S] binding. Introduction. The purpose of this assay was to characterize the functional activity of lead compounds identified by the radioligand competition binding assays described above. […] The α-subunit has intrinsic GTPase activity which generates a free α-subunit which can recombine with the β- and γ-subunits readying the G-protein for another signal transduction cycle. […]
MEASURED_QUANTITY: pEC50
Numbers only, as −log10 of the molar value.

Use these answered entries as a reference point.
CCCCCCCNC(=O)c1nn(-c2ccc(Cl)cc2Cl)c(-c2ccc(Cl)cc2)c1C ... 3.67
CCCCCNC(=O)c1nn(-c2ccc(Cl)cc2Cl)c(-c2ccc(Cl)cc2)c1C ... 5.28

// next item, pEC50 requested
Report pEC50 for CCCCCCCCCNC(=O)c1nn(-c2ccc(Cl)cc2Cl)c(-c2ccc(Cl)cc2)c1C please.
3.53
